PROCEDURE_SUMMARY: Metabolic stability in rat plasma assessed as parent compound remaining measured after 120 mins by LC-MS/MS analysis
Type: ADME, cell-free
SETTINGS: read-out: Stability
READOUT: remaining at 2 h

INSERT INTO results (compound, result) VALUES
  ('C[C@H]1CC2(CCN(c3ccc(C(=O)N4CCC(CN5Cc6cc7c(cc6C5)C(=O)N(C5CCC(=O)NC5=O)C7=O)CC4)cc3)CC2)CN1c1ccc(C#N)c(Cl)c1 (stereo partly specified)', '52%');

====

PROCEDURE_SUMMARY: AUC (0 to t) in Beagle dog at 1 mg/kg, iv measured upto 24 hrs by LC-MS/MS analysis
Type: ADME, organism-based, Canis lupus familiaris
Parameters: dose 1 mg/kg, time < 24 hrs, route iv
SETTINGS: in vivo
READOUT: AUC(0-t) at 24 h

INSERT INTO results (compound, result) VALUES
  ('C[C@H]1CC2(CCN(c3ccc(C(=O)N4CCC(CN5Cc6cc7c(cc6C5)C(=O)N(C5CCC(=O)NC5=O)C7=O)CC4)cc3)CC2)CN1c1ccc(C#N)c(Cl)c1 (stereo partly specified)', '4860 ng·h/mL');
